We begin with a simple list: items and their reported IC50.
- tested-system: human plasma kallikrein (Homo sapiens)
- Sequence (P03952 391-638 limits assumed): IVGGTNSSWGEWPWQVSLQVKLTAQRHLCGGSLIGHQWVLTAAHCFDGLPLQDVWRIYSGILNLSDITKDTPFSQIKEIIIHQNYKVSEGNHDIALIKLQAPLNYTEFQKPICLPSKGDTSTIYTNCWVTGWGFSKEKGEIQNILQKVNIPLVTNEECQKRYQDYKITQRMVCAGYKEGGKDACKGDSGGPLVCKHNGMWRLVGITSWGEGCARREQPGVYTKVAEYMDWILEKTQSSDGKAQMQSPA
- Sequence (P03952 20-390 partner limits assumed): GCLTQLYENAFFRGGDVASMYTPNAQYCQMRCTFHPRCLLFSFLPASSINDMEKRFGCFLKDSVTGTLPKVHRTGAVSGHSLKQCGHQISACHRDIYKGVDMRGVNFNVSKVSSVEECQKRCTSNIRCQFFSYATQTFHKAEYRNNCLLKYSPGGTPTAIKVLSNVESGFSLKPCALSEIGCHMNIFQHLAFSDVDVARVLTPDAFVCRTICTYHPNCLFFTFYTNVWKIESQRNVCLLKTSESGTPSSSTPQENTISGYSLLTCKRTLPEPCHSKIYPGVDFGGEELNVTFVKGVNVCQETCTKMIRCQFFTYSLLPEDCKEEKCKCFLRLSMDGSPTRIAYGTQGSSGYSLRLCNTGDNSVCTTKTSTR
- assay-summary: Kallikrein inhibition assay utilizing a quenched AMC peptide substrate (FLINT)
- condition-details: 11-point, 3-fold serial dilution, top 1 μM; 30 min preincubation; 2 nM kallikrein; 50 μM Z-Gly-Pro-Arg-AMC; kinetic reads over 30 min
readout-type: IC50 (nM)

1) CO[C@@H]1C[C@@H](C(=O)Nc2ccc3n[nH]cc3c2)N2C(=O)C=C(c3c(-n4cnnn4)ccc(Cl)c3F)CC12 (mixture of isomers): 31.3
2) O=C(Nc1ccc(-c2nc(=O)o[nH]2)cc1F)[C@@H]1CCC2CC(c3c(-n4cnnn4)ccc(Cl)c3F)=CC(=O)N21 (mixture of isomers): 274
3) NC(=O)c1ccc(NC(=O)[C@@H]2CC[C@@H]3CC(c4cc(Cl)ccc4-n4cc(C(F)(F)F)nn4)=CC(=O)N32)cc1F: 116
